- EXPERIMENTAL_TARGET: ZmDRIK1 (DROUGHT RESPONSIVE INACTIVE KINASE 1), kinase domain (Zea mays, UniProt C0P4K9)
- Construct: gene ZEAMMB73_Zm00001d028770; ZmDRIK1-KD R187-S514 (kinase domain)
- Sequence (C0P4K9 187-514): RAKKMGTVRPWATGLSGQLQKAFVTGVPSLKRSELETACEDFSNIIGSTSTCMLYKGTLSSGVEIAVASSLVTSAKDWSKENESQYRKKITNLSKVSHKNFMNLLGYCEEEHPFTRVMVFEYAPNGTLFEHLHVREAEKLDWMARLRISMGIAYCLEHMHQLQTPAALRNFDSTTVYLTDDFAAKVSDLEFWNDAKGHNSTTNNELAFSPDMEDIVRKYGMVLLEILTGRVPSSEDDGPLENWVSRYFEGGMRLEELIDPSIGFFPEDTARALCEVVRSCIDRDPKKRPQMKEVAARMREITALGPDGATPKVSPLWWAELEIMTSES
- EXPERIMENT_NOTES: biochemical
- COND: read-out: dTm B, sheet ZmDRIK1-R187-S514;; DSF, Boltzmann fit, 0.1% DMSO
QUANTITY: ΔTm at 10 µM (°C)

[[record]]
compound = "CC(C)NC[C@@H](C(=O)N1CCN(c2ncnc3c2[C@H](C)C[C@H]3O)CC1)c1ccc(Cl)cc1 [GDC-0068]"
value_reported = -0.503

[[record]]
compound = "N#CCNC(=O)c1ccc(-c2ccnc(Nc3ccc(N4CCOCC4)cc3)n2)cc1 [CYT387]"
value_reported = -0.664

[[record]]
compound = "CCn1c(N)c(C(=O)NC)c(=O)c2ccc(C#C[C@@](C)(O)COC)nc21 [SAR131675]"
value_reported = -0.688

[[record]]
compound = "CCS(=O)(=O)Nc1ccc2c(c1)/C(=C(/Nc1ccc(CN3CCCCC3)cc1)c1ccccc1)C(=O)N2 [Hesperadin]"
value_reported = -0.801

[[record]]
compound = "O=C(O)c1ccc(-c2c[nH]c3ncc(-c4ccccc4)cc23)cc1C1CCCC1 [GSK650394]"
value_reported = -0.785

[[record]]
compound = "CCn1c(-c2nonc2N)nc2c(C#CC(C)(C)O)ncc(OC[C@H]3CCCNC3)c21 [GSK690693]"
value_reported = -0.678

[[record]]
compound = "C[C@H]1[C@H](C)CC[C@]2(C(=O)O)CC[C@]3(C)C(=CC[C@@H]4[C@@]5(C)C[C@@H](O)[C@H](O)[C@@](C)(CO)[C@@H]5CC[C@]43C)[C@H]12 [Asiatic Acid]"
value_reported = -0.753

[[record]]
compound = "COC(=O)Nc1ccc(-c2nc(N3CCOCC3)c3cnn(C4CCN(C(=O)OC)CC4)c3n2)cc1 [WYE-354]"
value_reported = -0.687

[[record]]
compound = "Cc1[nH]c(/C=C2\\C(=O)Nc3ccccc32)c(C)c1CCC(=O)O [TSU-68 (SU6668)]"
value_reported = -0.64

[[record]]
compound = "NC(=O)c1cnc(N[C@@H]2CCCC[C@@H]2N)nc1Nc1cccc(-n2nccn2)c1 [PRT062607 (P505-15)]"
value_reported = -0.709

[[record]]
compound = "O=C1NC(=O)/C(=C/c2ccc3c(c2)OC(F)(F)O3)S1 [AS-604850]"
value_reported = -0.905

[[record]]
compound = "Cn1cc(-c2ccc3ncc(Cc4ccc5ncccc5c4)n3n2)cn1 [NVP-BVU972]"
value_reported = -0.84

[[record]]
compound = "Cn1cc(-c2cnn3c(N)c(Br)c([C@@H]4CCCNC4)nc23)cn1 [MK-8776 (SCH 900776)]"
value_reported = -0.736

[[record]]
compound = "CC(C)CC(=O)Nc1n[nH]c2c1CN(C(=O)C1CCN(C)CC1)C2(C)C [PHA-793887]"
value_reported = -0.826

[[record]]
compound = "NC(=O)Nc1cc(-c2cccc(F)c2)sc1C(=O)N[C@H]1CCCNC1 [AZD7762]"
value_reported = -0.804

[[record]]
compound = "Cn1cc(C2=C(c3cn(C4CCN(Cc5ccccn5)CC4)c4ccccc34)C(=O)NC2=O)c2ccccc21 [Enzastaurin (LY317615)]"
value_reported = -0.678

